B1: PTPLAD1 (parent)
chain: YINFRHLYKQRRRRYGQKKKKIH

Variants of: B1
assay_summary: protein stability index of a GFP-peptide fusion (GPS, HEK-293T) (PSI 1-6); higher = more stable;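 also: lentivirally expressed fusions sorted by FACS into six bins by GFP to DsRed ratio, PSI derived from sequencing read proportions per bin multiplied by bin number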
condition_label: c terminus: native
Binary classification by protein stability index, with 2 as an inclusive lower bound for yes; all other cases are no.

F4R yes

// query Is protein stability index at least 2? Consider R12Q
// result yes

// query Reported protein stability index at or above 2? H23F
// result no

// query Kindly determine if protein stability index recorded for Q17F is above or exactly 2.
// result yes

// query Does K9L have a reported protein stability index of at least 2?
// result no

// query Please indicate if the recorded protein stability index for L7D meets or exceeds 2.
// result yes
